# TARGET DESC: T1, FcRn-p3 fusion protein (human, UniProt P55899 24-297; P61769 21-119)
# T1 construct: baculovirus expressed; coated on ELISA wells; not shown: amino terminal part of bacteriophage p3 protein and CVDE protein
# T1 sequence (P55899 24-297, chain 1 of 2): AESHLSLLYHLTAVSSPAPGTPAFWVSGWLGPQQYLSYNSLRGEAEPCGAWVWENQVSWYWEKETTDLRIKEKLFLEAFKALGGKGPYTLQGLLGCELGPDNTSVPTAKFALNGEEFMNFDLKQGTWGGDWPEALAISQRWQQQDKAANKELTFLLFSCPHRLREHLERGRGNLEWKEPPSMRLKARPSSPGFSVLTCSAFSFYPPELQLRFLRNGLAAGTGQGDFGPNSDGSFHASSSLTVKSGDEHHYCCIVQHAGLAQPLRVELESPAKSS
# T1 sequence (P61769 21-119, chain 2 of 2): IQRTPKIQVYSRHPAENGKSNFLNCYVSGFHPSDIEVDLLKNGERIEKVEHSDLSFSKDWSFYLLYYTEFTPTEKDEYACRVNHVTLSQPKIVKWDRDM
# METHOD DESCRIPTION: phage ELISA pH6 (est.)
Assign Ratio/FWT to each entry below.
Kindly format the answer as number then unit.

INPUT: Given M3A_08 (other, EU numbering) CPPCPAPELLGGPSVFLFPPKPKDTLMISRTPEVTCVVEDVSHEDPEVKFNWYVDGVEVHNAKTKPREEQYNSTYRVVSVLPVLHQDWLNGKEYKCKVSNKALPAPIEKTISKAKGQPREPQVYTLPPSRDELTKNQVSLTCLVKGFYPSDITVEWESNGQPENNYKTTPPMLDSDGSFFLYSKLTVDKSRWQQGNVFSCSVMHEALHNHYTQKSLSLSPGK , respond with its Ratio/FWT.
OUTPUT: 5.6 fold

INPUT: Given C4A_18 (other, EU numbering) CPPCPAPELLGGPSVFLFPPKPKDTLMISRTPEVTCVVVDVSHEDPEVKFNWYVDGVEVHNAKTKPREEQYNSTYRVVSVLTVLHQDWLDGKEYKCKVSNKALPVPIEKTISKAKGQPREPQVYTLPPSRDELTKNQVSLTCLVKGFYPSDIVVEWESNGQPENNYKTTPPVLDSDGSFFLYSKLTVDKSRWQQGNVFSCSVMHEALHYHYTQKSLSLSPGK , respond with its Ratio/FWT.
OUTPUT: 8.1 fold

INPUT: Given C3A_21 (other, EU numbering) CPPCPAPELLGGPSVFLFPPKPKDTLMISRTPEVTCVVVDVSHEDPEVKFNWYVDGVEVHNAKTKPREEQYNSTYRVVSVLTVLHQDWLDGKEYKCKVSNKALPVPIEKTISKAKGQPREPQVYTLPPSRDELTKNQVSLTCLVKGFYPSDIAVEWESNGQPENNYKTTPPVLDPDGSFFLYSKLTVDKSRWQQGNVFSCSVMHEALHYHYTQKSLSLSPGK , respond with its Ratio/FWT.
OUTPUT: 9.8 fold

INPUT: Given T7A_48 (other, EU numbering) CPPCTAPERLGGPSVFLFPPKPKDTLMISRTPEVTCVVVDVSHEDPEVKFNWYVDGVEVHNAKTKPREEQYNSTYRVVSVLTVLHQDWLDGKEYKCKVSNKALPVPIEKTISKAKGQPREPQVYTLPPSRDELTKNQVSLTCLVKGFYPSDIAVEWESNGQPENNYKTTPPVLDSDGSFFLYSKLTVDKSRWQQGNVFSCSVMHEALHYHYTQKSLSLSPGK , respond with its Ratio/FWT.
OUTPUT: 11.6 fold

INPUT: Given T3A_13 (other, EU numbering) CPPCPAPELLGGPSVFLFPPKPKDTLMISRTPEVTCVVVDVSHEDPEVKFNWYVDGVEVHNAKTKPREEQYNSTYRVVSVLTVLHQDWLDGKEYKCKVSNKALPAPIEKTISKAKGQPREPQVYTLPPSRDELTKNQVSLTCLAKGFYPSDIAVEWESNGQPENNYKTTPPVLDSDGSFFLYSKLTVDKSRWQQGNVFSCSVMHEALHYHYTQKSLSLSPGK , respond with its Ratio/FWT.
OUTPUT: 5.6 fold
